# TESTED_ON: human TLR7 (Homo sapiens (Human), UniProt Q9NYK1)
# Sequence (Q9NYK1 27-1049): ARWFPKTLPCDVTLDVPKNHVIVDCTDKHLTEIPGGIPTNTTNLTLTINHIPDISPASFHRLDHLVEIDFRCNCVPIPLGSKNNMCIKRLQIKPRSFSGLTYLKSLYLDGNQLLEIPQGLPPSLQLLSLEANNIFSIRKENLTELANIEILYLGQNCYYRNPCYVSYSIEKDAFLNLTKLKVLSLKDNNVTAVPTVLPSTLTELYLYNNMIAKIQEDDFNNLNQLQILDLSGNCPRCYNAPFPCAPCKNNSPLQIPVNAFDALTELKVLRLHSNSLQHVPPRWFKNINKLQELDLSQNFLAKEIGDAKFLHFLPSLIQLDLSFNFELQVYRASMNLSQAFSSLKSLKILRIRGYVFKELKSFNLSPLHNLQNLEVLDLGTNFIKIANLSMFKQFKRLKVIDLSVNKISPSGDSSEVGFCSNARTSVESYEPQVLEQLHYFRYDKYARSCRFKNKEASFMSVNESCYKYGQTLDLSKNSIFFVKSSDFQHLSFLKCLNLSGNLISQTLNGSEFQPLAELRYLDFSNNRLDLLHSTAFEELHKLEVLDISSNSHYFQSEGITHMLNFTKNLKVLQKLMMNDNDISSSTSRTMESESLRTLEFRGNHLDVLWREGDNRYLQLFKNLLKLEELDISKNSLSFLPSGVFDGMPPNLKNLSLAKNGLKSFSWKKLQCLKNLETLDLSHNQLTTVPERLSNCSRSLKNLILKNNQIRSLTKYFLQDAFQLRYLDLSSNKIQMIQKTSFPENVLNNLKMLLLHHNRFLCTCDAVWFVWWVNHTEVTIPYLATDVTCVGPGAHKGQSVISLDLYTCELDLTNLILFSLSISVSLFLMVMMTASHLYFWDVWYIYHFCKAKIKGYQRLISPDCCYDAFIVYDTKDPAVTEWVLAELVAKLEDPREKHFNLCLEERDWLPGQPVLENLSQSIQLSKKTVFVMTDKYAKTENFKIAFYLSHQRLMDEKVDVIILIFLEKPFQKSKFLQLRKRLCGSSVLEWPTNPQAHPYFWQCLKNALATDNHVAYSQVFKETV
# MEASUREMENT_PROTOCOL: Test for evaluating the inhibition of the activation of human TLR7 (SEAP reporter, TLR7/NF-κB/SEAPorter HEK293 cell)
# EXPERIMENTAL_PARAMETERS: R-848 200 nmol/L, SEAP reporter
pIC50: −log10 of the molar value.

{"MOLECULE": "CCOc1nc(N)c2nc(-c3cncc(F)c3)n(Cc3ccc(C4CN5CCC4CC5)cc3)c2n1 (stereo not drawn) [Example 46]", "TESTED_ON": "human TLR7 (Homo sapiens (Human), UniProt Q9NYK1)", "pIC50": 7.60}
{"MOLECULE": "CCOc1nc(N)c2nc(-c3cncc(F)c3)n(Cc3ccc(O[C@H]4CCN(C)C4)nc3)c2n1 [Example 39]", "TESTED_ON": "human TLR7 (Homo sapiens (Human), UniProt Q9NYK1)", "pIC50": 6.09}
{"MOLECULE": "CCOc1nc(C)c2nc(-c3cncc(F)c3)n(Cc3ccc(C4CN5CCC4CC5)nc3C#N)c2n1 (stereo not drawn) [Example 382]", "TESTED_ON": "human TLR7 (Homo sapiens (Human), UniProt Q9NYK1)", "pIC50": 6.24}
{"MOLECULE": "CCOc1nc(N)c2nc(-c3cncc(F)c3)n(Cc3ccc(O[C@@H]4CCN(C)C4)nc3)c2n1 [Example 38]", "TESTED_ON": "human TLR7 (Homo sapiens (Human), UniProt Q9NYK1)", "pIC50": 6.28}
{"MOLECULE": "COc1nc(C)c2nc(-c3cncc(F)c3)n(Cc3ccc([C@@H]4CN5CCC4CC5)cc3)c2n1 [Example 177]", "TESTED_ON": "human TLR7 (Homo sapiens (Human), UniProt Q9NYK1)", "pIC50": 8.00}
{"MOLECULE": "COc1nc(C)c2nc(-c3cncc(C#N)c3)n(Cc3ccc(C4CN5CCC4CC5)cc3F)c2n1 (single isomer, unassigned) [Example 403]", "TESTED_ON": "human TLR7 (Homo sapiens (Human), UniProt Q9NYK1)", "pIC50": 7.68}

###

# TESTED_ON: human TLR7 (Homo sapiens (Human), UniProt Q9NYK1)
# MEASUREMENT_PROTOCOL: Test for evaluating the inhibition of the activation of human TLR7 (SEAP reporter, TLR7/NF-κB/SEAPorter HEK293 cell)
# EXPERIMENTAL_PARAMETERS: R-848 200 nmol/L, SEAP reporter

{"COMPOUND": "CCOc1nc(N)c2nc(-c3cncc(F)c3)n(Cc3ccc(CN4CCN(C)C(=O)C4)cc3)c2n1 [Example 93]", "TESTED_ON": "human TLR7 (Homo sapiens (Human), UniProt Q9NYK1)", "IC50 (nM)": 290}
{"COMPOUND": "COc1nc(C)c2nc(-c3cncc(F)c3)n(Cc3ccc(C4CN5CCC4CC5)cc3F)c2n1 (single isomer, unassigned) [Example 393]", "TESTED_ON": "human TLR7 (Homo sapiens (Human), UniProt Q9NYK1)", "IC50 (nM)": 1}
{"COMPOUND": "Cc1nc(O)nc2c1nc(-c1cncc(F)c1)n2Cc1ccc(C2CN3CCC2CC3)cc1 (centres unmarked) [Example 388]", "TESTED_ON": "human TLR7 (Homo sapiens (Human), UniProt Q9NYK1)", "IC50 (nM)": 1350}
{"COMPOUND": "CCOc1nc(N)c2nc(-c3cncc(F)c3)n(Cc3cnn(C)c3)c2n1 [Example 37]", "TESTED_ON": "human TLR7 (Homo sapiens (Human), UniProt Q9NYK1)", "IC50 (nM)": 2700}
{"COMPOUND": "CCOc1nc(C)c2nc(-c3cncc(F)c3)n(Cc3ncc(C4=CN5CCC4CC5)cc3F)c2n1 [Example 359]", "TESTED_ON": "human TLR7 (Homo sapiens (Human), UniProt Q9NYK1)", "IC50 (nM)": 855}
